Target: UniProt:Q72547
Assay Overview: Inhibition of HIV1 recombinant reverse transcriptase
Measure: IC50 (nM)
Field format: number, assumed nM, no unit text.

Recall the reported IC50 of Cc1cn([C@H]2C=C[C@@H](COP(=O)(O)OP(=O)(O)OP(=O)(O)O)O2)c(=O)[nH]c1=O [STAVUDINE TRIPHOSPHATE] when tested on UniProt:Q72547.
36

Recall the reported IC50 of Cc1cn([C@H]2C[C@H](N=[N+]=[N-])[C@@H](COP(=O)(O)OP(=O)(O)OP(=O)(O)O)O2)c(=O)[nH]c1=O [ZIDOVUDINE TRIPHOSPHATE] when tested on UniProt:Q72547.
54

Taken from ChEMBL document CHEMBL1156415.
